// provenance: PubChem BioAssay (Tox21)

Experiment: qHTS assay for identifying genotoxic compounds that show differential cytotoxicity against isogenic chicken DT40 cell lines with known DNA damage response pathways - Rad54/Ku70 mutant cell line (AID 743015); note: nearly all actives have a fitted effect of over 60% in size
Details: DT40 Rad54/Ku70 mutant viability, CellTiter-Glo, 40 h; series mostly up to 66.8 µM
Records with an inconclusive call do not appear. Active and inactive are the calls of the source. Calls come from the whole dose curve; as a rule, active = well fitted cell-killing curve with a large enough effect in the repeat runs; inconclusive = weak or mixed curves; inactive = no such curve, though single readings can be large or run the other way.
I would appreciate it if you answered using one of these outcomes: true (active), false (inactive)

>>> print(df.to_string())
                                smiles_text  answer_label
0                           CCCCCCOC(=O)CCC         false
1         COc1cc(C(C)(C)C)c(O)c(C(C)(C)C)c1          true
2             O=[N+]([O-])c1cc[n+]([O-])cc1         false
3  NC(N)=NN=C(/C=C/c1ccc([N+](=O)[O-])o1)/C=C/c1ccc([N+](=O)[O-])o1          true
4               O=S(=O)(O)c1ccc(O)c2ncccc12         false

query: Short answer needed: outcome of this test for COC(=O)C(C)=O ?
result: false

query: Short answer needed: outcome of this test for CC(=O)Nc1ccc(/C=N/NC(N)=S)cc1 ?
result: false

query: Short answer needed: outcome of this test for C[C@H](CCC(=O)O)[C@H]1CC[C@H]2[C@@H]3[C@H](O)C[C@@H]4C[C@H](O)CC[C@]4(C)[C@H]3CC[C@]12C ?
result: false

query: Short answer needed: outcome of this test for CCCCCOC(=O)c1ccc(O)cc1 ?
result: true

query: Short answer needed: outcome of this test for O=C(O)/C=C/c1cnc[nH]1 ?
result: false

* * *

Assay: A CellTox Green Cytotoxicity Assay to monitor cytotoxicity in HepG2 cells - 24 hour (AID 1224878); note: nearly all actives have a fitted effect of over 45% in size; for Cytotoxicity: % is set by controls: 0 for no effect and ±100 for the full control effect
Details: CellTox Green fluorescence; series mostly up to 76.8 µM
Inconclusive results are not listed. Calls of active or inactive are those of the source. The call rests on the fitted dose curve; in most records, active means well fitted activation curve with a large enough effect in the repeat runs; inconclusive means weak or mixed curves; inactive means flat fitted curve, though single readings scatter.
I would appreciate it if you answered using one of these outcomes: active, inactive

Known results for molecules:
>>> df
                                   molecule  answer_label
0               O=S(=O)(O)c1ccc(O)c2ncccc12      inactive
1  CCC(=O)OC(C)(C)C1CC=C(C)CC1 (configuration not stated)      inactive
2  N[C@H]1C(O)O[C@H](CO)[C@H](O)[C@@H]1O (some centres not stated)      inactive

query: Short answer needed: outcome of this test for CC(C(=O)O)c1ccc(-c2ccccc2)c(F)c1 (configuration not stated) ?
result: active

query: Short answer needed: outcome of this test for CCCCCCCCCC=O ?
result: inactive

query: Short answer needed: outcome of this test for CC1(C)[C@H]2CC[C@]1(C)[C@H](O)C2 ?
result: inactive

query: Short answer needed: outcome of this test for CC(=O)NCCCS(=O)(=O)O ?
result: active

* * *

Test: qHTS assay to identify small molecule agonists of the endoplasmic reticulum stress response signaling pathway (AID 1159516); note: % is set by controls: 0 for no effect and ±100 for the full control effect
Conditions: ESRE-bla HeLa, ER stress beta-lactamase reporter, 5 h; series mostly up to 61 µM
Results filed as inconclusive are left out. Activity calls are given as the source filed them. Calls follow the shape of the dose curve; as a rule, active = well fitted activation curve with a large enough effect in the signal ratio in the repeat runs (not every such curve was filed as active); inconclusive = weak or mixed curves, or effect the other way; inactive = flat fitted curve, though single readings scatter; the % refers to the signal ratio.
I would appreciate it if you answered using one of these outcomes: active, inactive

Known results for compounds:
>>> print(df.to_string())
            compound  answer_label
0          Cc1ccccn1      inactive
1  CCCCOCCOCCOCCOCCO      inactive

query: Short answer needed: outcome of this test for CC(C)(C)C(=O)OCOP(=O)(COCCn1cnc2c(N)ncnc21)OCOC(=O)C(C)(C)C ?
result: inactive

query: Short answer needed: outcome of this test for CC(C)NCC(O)c1cc(O)cc(O)c1 (configuration not stated) ?
result: inactive

query: Short answer needed: outcome of this test for CC(C(=O)O)c1ccc(-c2ccccc2)c(F)c1 (configuration not stated) ?
result: inactive

* * *

Target: Nuclear receptor subfamily 1 group I member 2 (Rattus norvegicus) (UniProt Q9R1A7)
Sequence (Q9R1A7 whole entry, looked up): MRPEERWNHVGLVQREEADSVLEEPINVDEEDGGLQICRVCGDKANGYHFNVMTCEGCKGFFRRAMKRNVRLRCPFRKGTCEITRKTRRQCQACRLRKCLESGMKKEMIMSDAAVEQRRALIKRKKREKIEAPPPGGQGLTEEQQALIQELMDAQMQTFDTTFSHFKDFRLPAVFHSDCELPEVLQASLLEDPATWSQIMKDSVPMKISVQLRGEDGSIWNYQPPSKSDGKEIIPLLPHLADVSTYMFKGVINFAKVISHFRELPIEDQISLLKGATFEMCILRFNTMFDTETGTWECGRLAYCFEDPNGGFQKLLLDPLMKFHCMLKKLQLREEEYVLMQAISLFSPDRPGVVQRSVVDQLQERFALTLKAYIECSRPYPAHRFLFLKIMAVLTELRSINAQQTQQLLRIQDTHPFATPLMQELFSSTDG
Assay: Rat pregnane X receptor (rPXR) activation by small molecules, qHTS assay (AID 1346983); note: % is set by controls: 0 for no effect and ±100 for the full control effect; nearly all actives have a fitted effect of over 20% in size
Conditions: rPXR luciferase reporter cells, One-Glo luminescence, 24 h; hits give high values
Records with an inconclusive call do not appear.
Documented max activation across a set of molecules
Use % as the unit, but write only the number.

Consider the following illustrative entries.
>>> print(df.to_string())
                                   molecule                           measured_target  readout_value
0  COc1ccc([C@@H]2Sc3ccccc3N(CCN(C)C)C(=O)[C@@H]2OC(C)=O)cc1  Nuclear receptor subfamily 1 group I member 2 (Rattus norvegicus) (UniProt Q9R1A7)         -0.277
1         Cc1cc(CC(=O)O)c(C)n1-c1ccc(Cl)cc1  Nuclear receptor subfamily 1 group I member 2 (Rattus norvegicus) (UniProt Q9R1A7)          0.177
2    O=C(O)Cc1sc(-c2ccccc2)nc1-c1ccc(Cl)cc1  Nuclear receptor subfamily 1 group I member 2 (Rattus norvegicus) (UniProt Q9R1A7)          0.948

query: May I ask what max activation has been recorded for O=C(CCN1CCN2CCCC2C1)N1c2ccccc2Sc2ccc(Cl)cc21 (stereo not given) ?
result: 3.92

query: May I ask what max activation has been recorded for CCOC(=S)SSC(=S)OCC ?
result: -2.15

query: May I ask what max activation has been recorded for NC(=S)N/N=C/c1cccnc1 ?
result: -5.63

query: May I ask what max activation has been recorded for CN1CCC[C@@H]1c1cccnc1 ?
result: -0.0949

query: May I ask what max activation has been recorded for Cc1nc2ccccc2n1Cc1ccc(Cl)cc1 ?
result: -21.8

* * *

Target: Cytochrome P450 2C19 (Homo sapiens)
Assay: Cytochrome P450 Family 2 Subfamily C Member 19 (CYP2C19) small molecule antagonists: luciferase reporter qHTS assay (AID 1671197); note: nearly all actives have a fitted effect of over 65% in size
Conditions: P450-Glo CYP2C19 enzyme, luciferin luminescence, 1 h; series mostly up to 115 µM
Description: National Center for Advancing Translational Sciences [NCATS] U.S. Environmental Protection Agency [EPA] National Institutes of Environmental Health Sciences [NIEHS] National Toxicology Program [NTP] U.S. Food and Drug Administration [FDA] Cytochrome P450 (CYP) enzymes are membrane-bound hemeproteins that play a key role in metabolism of drugs and xenobiotics. […] The luciferin products formed are detected with a luciferin detection reagent, and the amount of light produced is proportional to CYP activity. […]
Results filed as inconclusive are left out. Calls of active or inactive are those of the source. Calls come from the whole dose curve; as a rule, active = well fitted inhibition curve with a large enough effect in the repeat runs; inconclusive = weak or mixed curves; inactive = no such curve, though single readings can be large or run the other way.
I would appreciate it if you answered using one of these outcomes: active, inactive

>>> df
                                   compound  answer_label
0  CC(O)C1CCCCC1 (configuration not stated)      inactive
1              CCCCc1cc2ccccc2c(OCCN(C)C)n1      inactive
2  CC(=O)c1c(C)c([N+](=O)[O-])c(C(C)(C)C)c([N+](=O)[O-])c1C        active
3  CC/C(=C\C(=N/O)C(N)=O)C(C)[N+](=O)[O-] (configuration not stated)      inactive
4  O=C1[C@H](CC[C@H](O)c2ccc(F)cc2)[C@@H](c2ccc(O)cc2)N1c1ccc(F)cc1        active

query: Short answer needed: outcome of this test for Cc1ccc(O)c([C@H](CCN(C(C)C)C(C)C)c2ccccc2)c1 ?
result: active

query: Short answer needed: outcome of this test for O=C(Nc1ccccc1)OCC(CN1CCCCC1)OC(=O)Nc1ccccc1 (configuration not stated) ?
result: active

query: Short answer needed: outcome of this test for CC(C)NCC(O)c1cc(O)cc(O)c1 (configuration not stated) ?
result: inactive

query: Short answer needed: outcome of this test for CC(=O)O[C@@H]1C(=O)O[C@@H]2[C@H]1OC(=O)[C@@H]2OC(C)=O ?
result: inactive

query: Short answer needed: outcome of this test for O=C(C(=O)c1ccc(Br)cc1)c1ccc(Br)cc1 ?
result: active

query: Short answer needed: outcome of this test for Cl/C(=C\n1cncn1)c1ccc(Cl)cc1Cl ?
result: active

query: Short answer needed: outcome of this test for c1ccc(OCc2ccc(CCCN3CCOCC3)cc2)cc1 ?
result: active

* * *

Biological target: Progesterone receptor (Homo sapiens)
Experiment: qHTS assay to identify small molecule antagonists of the progesterone receptor (PR) signaling pathway (AID 1346795)
Conditions: PR-UAS-bla HEK293T, beta-lactamase FRET ratio, 16 h; series mostly up to 92.4 µM
Inconclusive results are not listed. Activity calls are given as the source filed them. Calls come from the whole dose curve; as a rule, active = well fitted inhibition curve with a large enough effect in the signal ratio in the repeat runs (not every such curve was filed as active); inconclusive = weak or mixed curves; inactive = flat fitted curve, though single readings scatter; the % refers to the signal ratio.
I would appreciate it if you answered using one of these outcomes: class 1 (active), class 0 (inactive)

Known results for compounds:
In [3]: df
Out[3]:
                                   compound  answer_label
0  OC(CCN1CCCCC1)(c1ccccc1)C1CCCCC1 (stereo not drawn)       class 0
1                          COC(Cc1ccccc1)OC       class 0
2         O=C(O)C(c1ccc(Cl)cc1)c1ccc(Cl)cc1       class 0
3  Cn1c(=O)c2c(ncn2CC(O)CO)n(C)c1=O (stereo not drawn)       class 0
4                        Cc1ccc(C(N)=O)cc1N       class 0

query: Short answer needed: outcome of this test for CC[C@@H]1C[C@H](N(Cc2cc(C(F)(F)F)cc(C(F)(F)F)c2)C(C)=O)c2cc(C(F)(F)F)ccc2N1C(=O)OC(C)C ?
result: class 0

query: Short answer needed: outcome of this test for CCCCCCCCCC=O ?
result: class 0

query: Short answer needed: outcome of this test for CC[C@]12CCCN3CCc4c(n(c5ccccc45)C(=O)C1)[C@@H]32 ?
result: class 1

query: Short answer needed: outcome of this test for O=C=NC1CCC(CC2CCC(N=C=O)CC2)CC1 (stereo not drawn) ?
result: class 0

query: Short answer needed: outcome of this test for Oc1ccc(Sc2ccc(O)cc2)cc1 ?
result: class 1

query: Short answer needed: outcome of this test for O=C1CCCCCO1 ?
result: class 0

query: Short answer needed: outcome of this test for ClC(Cl)(Cl)c1ccc(C(Cl)(Cl)Cl)cc1 ?
result: class 0

query: Short answer needed: outcome of this test for CN1CCC[C@@H]1c1cccnc1 ?
result: class 0
